assay_overview: reversal of MRP1-mediated doxorubicin resistance, pilot screen, H69AR cells, doxorubicin co-treatment (AID 601)
assay_setup: H69AR cells + 2 uM doxorubicin, CellTiter-Glo, 72 h; at 10 µM; stronger effect = higher value
measured_attribute: differential viability (reversal) (%)

compound	measured_attribute	quantity_unit	obs_value
COC(=O)c1ccccc1NC(=O)COc1ccc(S(=O)(=O)N2CCCC2)cc1C	differential viability (reversal)	%	8.04
CCOc1ccc(-c2cc(C(=O)N3CCN(c4ccccn4)CC3)c3ccccc3n2)cc1	differential viability (reversal)	%	-66.7
O=S1(=O)CCC(N=Cc2cc(Br)ccc2O)C1 (stereo not given)	differential viability (reversal)	%	-14.3
COc1ccc(S(=O)(=O)NCCSCc2ccco2)cc1Cl	differential viability (reversal)	%	1.13
Cc1c(NC(=O)c2nn(C)c(=O)c3ccccc23)c(=O)n(-c2ccccc2)n1C	differential viability (reversal)	%	8.84
Cc1cc(Cn2ccnc2)c(C)cc1Cn1ccnc1	differential viability (reversal)	%	6.74
COc1cc(C2N=C(c3ccccc3)NO2)cc(Br)c1O (stereo not given)	differential viability (reversal)	%	-4.25
Cn1c(-c2ccc(F)cc2)cnc1SCC(=O)Nc1ccccc1N1CCOCC1	differential viability (reversal)	%	12.9
Cc1cc(C)n(Cc2nc3ccccc3n2C)n1	differential viability (reversal)	%	8.18
CC(C)Cn1c(N)c(C(=O)NCc2cccs2)c2nc3ccccc3nc21	differential viability (reversal)	%	-5.04
CC(NC(=O)OCc1ccccc1)C(=O)N1CC(O)CC1C(=O)O (stereo not given)	differential viability (reversal)	%	17.6
COc1cccc(OCC(=O)Nc2ccccc2C(N)=O)c1	differential viability (reversal)	%	13.1
CC1CCN(c2nc3c(c(=O)n(C)c(=O)n3C)n2Cc2ccccc2)CC1	differential viability (reversal)	%	41.1
CCCn1nnc(NCc2ccc(OCc3cccs3)c(OC)c2)n1	differential viability (reversal)	%	1.02
N#Cc1cc2ccc(N3CCOCC3)cc2cc1C#N	differential viability (reversal)	%	-33.5
Cc1ccc(-c2nnn(CC(=O)N(CC(=O)NCC3CCCO3)c3ccccc3)n2)o1 (stereo not given)	differential viability (reversal)	%	2.55
Brc1ccc2[nH]c3nc(SCCN4CCOCC4)nnc3c2c1	differential viability (reversal)	%	10.9
CCOc1ccc(NS(=O)(=O)c2ccc(OCC(=O)N3CCCC3)cc2)cc1	differential viability (reversal)	%	3.44
CCOC(=O)c1ccc(NC(=O)CCc2nc(-c3ccc(C)cc3)no2)cc1	differential viability (reversal)	%	5.47
CC(C)CCNC(=O)C(c1ccco1)N(CC1CCCO1)C(=O)Cn1nnc2ccccc21 (stereo not given)	differential viability (reversal)	%	1.64
COc1cccc(-c2cc(C(=O)Nc3cc(C)n(Cc4ccc(Cl)cc4)n3)no2)c1	differential viability (reversal)	%	-6.4
COc1ccc(OC)c2[nH]c(=O)c(CCNC(=O)CC(C)C)cc12	differential viability (reversal)	%	4.93
Cc1cccc(N(C)C(=S)Oc2ccc3ccccc3c2)c1	differential viability (reversal)	%	13
CC1CN(c2nc3ccccc3nc2C(C#N)C(=O)NCc2ccc3c(c2)OCO3)CC(C)O1 (stereo not given)	differential viability (reversal)	%	-5.39
O=C(CSc1nc2ccccc2[nH]1)N1CCCCC1	differential viability (reversal)	%	8.96
CCCCC(CC)C(=O)Nc1ccccc1C#N (stereo not given)	differential viability (reversal)	%	8.93
C=CCn1c(SCn2nnc3ccccc3c2=O)nnc1-c1ccc(Br)cc1	differential viability (reversal)	%	7.09
CCCc1cc(-c2n[nH]c(C)c2-c2ccc(C(=O)OCC)o2)c(O)cc1O	differential viability (reversal)	%	-10.2
COCCn1c(CN(Cc2ccccc2)Cc2ccccc2)nc2c1c(=O)n(C)c(=O)n2C	differential viability (reversal)	%	-11.8
COc1cc(NC(=O)c2ccco2)c(OC)cc1NC(=O)CCC(=O)Nc1cc(C)cc(C)c1	differential viability (reversal)	%	-16.3
COc1ccc(/C=N/n2cnnc2SCc2ccc(OC)cc2)cc1	differential viability (reversal)	%	-6.8
CC(C)C[C@H]1C(=O)N2CCC[C@H]2[C@]2(O)O[C@](NC(=O)[C@@H]3C=C4c5cccc6[nH]c(Br)c(c56)CC4N(C)C3)(C(C)C)C(=O)N12 (stereo not given in full)	differential viability (reversal)	%	11.8
COC(=O)c1ccccc1NC(=O)Nc1cc(C)cc(C)n1	differential viability (reversal)	%	6.95
Cc1cc(C)cc(NC(=O)CN(C)S(=O)(=O)c2cnc[nH]2)c1	differential viability (reversal)	%	8.86
COc1cccc(-c2cc(C(=O)Nc3c(C)nn(Cc4ccccc4)c3C)no2)c1	differential viability (reversal)	%	8.66
Cc1nc2ccc(C(=O)O)cc2c2c1CC(C)S2 (stereo not given)	differential viability (reversal)	%	-2.25
COc1cccc(NC(=O)COC(=O)c2cccnc2)c1	differential viability (reversal)	%	5.84
CCCC(=O)Nc1ccc(NC(=O)c2ccccc2OC)cn1	differential viability (reversal)	%	5.96
O=c1[nH]c(NCc2ccccc2)nc2c1CCCC2	differential viability (reversal)	%	7.85
CCCSc1ccc2nc(NC(=O)OC)[nH]c2c1	differential viability (reversal)	%	-28.6
O=S(=O)(Nc1cccnc1)c1ccc2c(c1)OCCO2	differential viability (reversal)	%	12.1
Cc1ccc2c(c1)c1c(n2CC(O)Cn2c(C)nc3ccccc32)/C(=N\O)CCC1 (stereo not given)	differential viability (reversal)	%	-12.7
Cc1[nH]n(C(N)=S)c(=O)c1C(c1ccccc1)C(C#N)C#N (stereo not given)	differential viability (reversal)	%	-0.72
C=CCSC1=C(C#N)C(c2ccccc2C)CC(=O)N1 (stereo not given)	differential viability (reversal)	%	-0.42
CC(C)(C)c1nnc(NC(=O)C2CCN(c3ncccn3)CC2)s1	differential viability (reversal)	%	14.3

Attribution: PubChem BioAssay
